target.or.system: Avi-KRAS WT (1-169) GppNHp/RAF1 RBD-3xFLAG (52-151) (Homo sapiens, UniProt P01116)
Construct: Avi-KRAS WT (1-169)
Sequence (P01116 1-169 isoform P01116-2): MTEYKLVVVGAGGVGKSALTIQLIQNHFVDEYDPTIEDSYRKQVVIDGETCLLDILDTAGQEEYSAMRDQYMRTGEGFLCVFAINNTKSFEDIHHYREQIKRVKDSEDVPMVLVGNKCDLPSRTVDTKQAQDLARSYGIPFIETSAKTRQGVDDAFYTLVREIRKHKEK
measurement.notes: Raf1-KRAS WT-GppNHP disruption HTRF assay (Biological Example 1)
Type: binding
cond: KRAS WT, GppNHp-loaded; class symbols
Procedure: A protein:protein interaction (PPI) Homogeneous Time Resolved Fluorescence (HTRF) assay was used to determine the effectiveness of compounds of the present disclosure in disrupting KRAS protein and effector RAF1 binding. The assay buffer included: 50 mM Tris pH 7.5, 100 mM NaCl, 5 mM MgCl2, 0.1% BSA, 0.01% Tween, and 10% DMSO. The bead buffer included: 50 mM Tris pH 7.5, and 0.01% Tween 20. […] Data was reported as percentage of activity, with DMSO as 100%. Data was plotted and analyzed using Prism 8.
pIC50: −log10 of the molar value.

compound	target.or.system	pIC50
CCN(c1nc(OCC23CCCN2CC(F)C3)nc2c(F)c(-c3ccc(F)c4sc(N)c(C#N)c34)c(C(F)(F)F)cc12)C1CCN(C(=O)c2ccncc2)C1 (stereo not drawn) [Compound 709]	Avi-KRAS WT (1-169) GppNHp/RAF1 RBD-3xFLAG (52-151) (Homo sapiens, UniProt P01116)	> 7.00
[2H]C1([2H])CN2C[C@H](F)C[C@]2(COc2nc(N3C[C@H]4C[C@@H]3CO4)c3cc(C(F)(F)F)c(-c4ccc(F)c5sc(N)c(C#N)c45)c(F)c3n2)C1 [Compound 567]	Avi-KRAS WT (1-169) GppNHp/RAF1 RBD-3xFLAG (52-151) (Homo sapiens, UniProt P01116)	6.00 to 7.00
CCN(c1nc(OC[C@@]23CCCN2C[C@H](F)C3)nc2c(F)c(-c3ccc(F)c4sc(N)c(C#N)c34)c(C(F)(F)F)cc12)[C@H]1CC(=O)N(C2CC2)C1 (atropisomer, axis not shown) [Compound 615]	Avi-KRAS WT (1-169) GppNHp/RAF1 RBD-3xFLAG (52-151) (Homo sapiens, UniProt P01116)	> 7.00
CCN(c1nc(OC[C@@]23CCCN2C[C@H](F)C3)nc2c(F)c(-c3ccc(F)c4sc(N)c(C#N)c34)c(C(F)(F)F)cc12)[C@H]1CCN(C(=O)C2CC2)[C@@H]1C (atropisomer, axis not shown) [Compound 579]	Avi-KRAS WT (1-169) GppNHp/RAF1 RBD-3xFLAG (52-151) (Homo sapiens, UniProt P01116)	> 7.00
COC(=O)N1CC[C@H](N(c2nc(OC[C@@]34CCCN3C[C@H](F)C4)nc3c(F)c(-c4ccc(F)c5sc(N)c(C#N)c45)c(C(F)(F)F)cc23)C2CC2)C1 (atropisomer, axis not shown) [Compound 767]	Avi-KRAS WT (1-169) GppNHp/RAF1 RBD-3xFLAG (52-151) (Homo sapiens, UniProt P01116)	6.00 to 7.00
C=C(F)C(=O)N1CC[C@@H](N(C)c2nc(OC[C@@]34CCCN3C[C@H](F)C4)nc3c(F)c(-c4ccc(F)c5sc(N)c(C#N)c45)c(C(F)(F)F)cc23)[C@H]1C [Compound 669]	Avi-KRAS WT (1-169) GppNHp/RAF1 RBD-3xFLAG (52-151) (Homo sapiens, UniProt P01116)	6.00 to 7.00
CCN(c1nc(OC[C@@]23CCCN2C[C@H](F)C3)nc2c(F)c(-c3ccc(F)c4sc(N)c(C#N)c34)c(C(F)(F)F)cc12)[C@@H]1C[C@@H](C)N(C(=O)COC)C1 (atropisomer, axis not shown) [Compound 597]	Avi-KRAS WT (1-169) GppNHp/RAF1 RBD-3xFLAG (52-151) (Homo sapiens, UniProt P01116)	> 7.00
CCN(c1nc(OC[C@@]23CCCN2C[C@H](F)C3)nc2c(F)c(-c3ccc(F)c4sc(N)c(C#N)c34)c(C(F)(F)F)cc12)[C@H]1CCN(C(=O)c2cnnn2C)C1 (atropisomer, axis not shown) [Compound 733]	Avi-KRAS WT (1-169) GppNHp/RAF1 RBD-3xFLAG (52-151) (Homo sapiens, UniProt P01116)	6.00 to 7.00
CCN(c1nc(OC[C@@]23CCCN2C[C@H](F)C3)nc2c(F)c(-c3ccc(F)c4sc(N)c(C#N)c34)c(C(F)(F)F)cc12)[C@H]1CCN(C(=O)[C@@H]2C[C@@H]2F)C1 (atropisomer, axis not shown) [Compound 691]	Avi-KRAS WT (1-169) GppNHp/RAF1 RBD-3xFLAG (52-151) (Homo sapiens, UniProt P01116)	> 7.00
CCN(c1nc(OC[C@@]23CCCN2C[C@H](F)C3)nc2c(F)c(-c3ccc(F)c4sc(N)c(C#N)c34)c(C(F)(F)F)cc12)[C@H]1CCN(C(=O)OC2CC2)C1 (atropisomer, axis not shown) [Compound 599]	Avi-KRAS WT (1-169) GppNHp/RAF1 RBD-3xFLAG (52-151) (Homo sapiens, UniProt P01116)	> 7.00
CN(C)C(=O)N1CC[C@H]2[C@@H]1CN2c1nc(OC[C@@]23CCCN2C[C@H](F)C3)nc2c(F)c(-c3ccc(F)c4sc(N)c(C#N)c34)c(C(F)(F)F)cc12 (atropisomer, axis not shown) [Compound 728]	Avi-KRAS WT (1-169) GppNHp/RAF1 RBD-3xFLAG (52-151) (Homo sapiens, UniProt P01116)	5.00 to 6.00
CCN(c1nc(OC[C@@]23CCCN2C[C@H](F)C3)nc2c(F)c(-c3ccc(F)c4sc(N)c(C#N)c34)c(C(F)(F)F)cc12)[C@H]1CCN(C(=O)c2ccsn2)C1 (atropisomer, axis not shown) [Compound 722]	Avi-KRAS WT (1-169) GppNHp/RAF1 RBD-3xFLAG (52-151) (Homo sapiens, UniProt P01116)	> 7.00
CCN(c1nc(OC[C@@]23CCCN2C[C@H](F)C3)nc2c(F)c(-c3ccc(F)c4sc(N)c(C#N)c34)c(C(F)(F)F)cc12)[C@H]1CCN(C(=O)[C@@H]2C[C@H]2F)C1 (atropisomer, axis not shown) [Compound 768]	Avi-KRAS WT (1-169) GppNHp/RAF1 RBD-3xFLAG (52-151) (Homo sapiens, UniProt P01116)	> 7.00
CCN(c1nc(OC[C@@]23CCCN2C[C@H](F)C3)nc2c(F)c(-c3ccc(F)c4sc(N)c(C#N)c34)c(C(F)(F)F)cc12)[C@H]1CCN(C(=O)OC2CCN(C(C)=O)CC2)C1 (atropisomer, axis not shown) [Compound 720]	Avi-KRAS WT (1-169) GppNHp/RAF1 RBD-3xFLAG (52-151) (Homo sapiens, UniProt P01116)	> 7.00
N#Cc1c(N)sc2c(F)ccc(-c3c(C(F)(F)F)cc4c(N5CCn6nc(C(=O)N7CCOCC7)cc6C5)nc(OCC56CCCN5CC(F)C6)nc4c3F)c12 (stereo not drawn) [Compound 646]	Avi-KRAS WT (1-169) GppNHp/RAF1 RBD-3xFLAG (52-151) (Homo sapiens, UniProt P01116)	6.00 to 7.00
CCN(c1nc(OC[C@@]23CCCN2C[C@H](F)C3)nc2c(F)c(-c3ccc(F)c4sc(N)c(C#N)c34)c(C(F)(F)F)cc12)[C@H]1CCN(C(=O)c2ccnn2C)C1 (atropisomer, axis not shown) [Compound 723]	Avi-KRAS WT (1-169) GppNHp/RAF1 RBD-3xFLAG (52-151) (Homo sapiens, UniProt P01116)	> 7.00
CCN(c1nc(OC[C@@]23CCCN2C[C@H](F)C3)nc2c(F)c(-c3ccc(F)c4sc(N)c(C#N)c34)c(C(F)(F)F)cc12)[C@H]1CCN(C(=O)c2cncnc2)C1 (atropisomer, axis not shown) [Compound 727]	Avi-KRAS WT (1-169) GppNHp/RAF1 RBD-3xFLAG (52-151) (Homo sapiens, UniProt P01116)	6.00 to 7.00
CCN(c1nc(OC[C@@]23CCCN2C[C@H](F)C3)nc2c(F)c(-c3ccc(F)c4sc(N)c(C#N)c34)c(C(F)(F)F)cc12)[C@H]1CCN(C(=O)N2CC(F)C2)[C@@H]1C (atropisomer, axis not shown) [Compound 780]	Avi-KRAS WT (1-169) GppNHp/RAF1 RBD-3xFLAG (52-151) (Homo sapiens, UniProt P01116)	> 7.00
